# Tested system: biotinylated HRP (Armoracia rusticana, UniProt P00433)
# Construct: purchased Roche Diagnostics, Indianapolis, Ind., USA
# Assay name: Model system for selection of SSIA (M280 btn-BSA-AK1-streptavidin particles + Btn-HRP:HRP)
# Type: biochemical
# Cond: SSIA 100 μM; conclusion in words
Experimental endpoint: effect in the model system / utility as SSIA

CC(=O)N[C@@H](CS)C(=O)O    no effect
CC1(C)CC(O)CC(C)(C)N1[O]    no effect
COc1ccc2[nH]cc(CCNC(C)=O)c2c1    no effect

----------
# Tested system: biotinylated HRP (Armoracia rusticana, UniProt P00433)
# Construct: purchased Roche Diagnostics, Indianapolis, Ind., USA
# Assay name: Model system for selection of SSIA (M280 btn-BSA-AK1-streptavidin particles + Btn-HRP:HRP)
# Assay type: biochemical
# Cond: Btn-HRP 250 ng/mL vs 0; SSIA 100 μM
Experimental endpoint: S4/S0
Field format: numeric only.

CC(=O)N[C@@H](CS)C(=O)O    234.2
Cl.Nc1ccc(O)cc1O [4-aminoresorcinol HCl, 4-aminoresorcinol hydrochloride]    384.5

Okay, next one:
Consider the compound Oc1ccc(Cl)cc1O and give its measured S4/S0.
13558.5

----------
# Tested system: biotinylated HRP (Armoracia rusticana, UniProt P00433)
# Construct: purchased Roche Diagnostics, Indianapolis, Ind., USA
# Assay name: Model system for selection of SSIA (M280 btn-BSA-AK1-streptavidin particles + Btn-HRP:HRP)
# Assay type: biochemical
# Cond: Btn-HRP 1 ng/mL vs 0; SSIA 100 μM
Experimental endpoint: S1/S0
Field format: numeric only.

Consider the following illustrative entries.
N[C@@H](CCC(=O)N[C@@H](CS)C(=O)NCC(=O)O)C(=O)O [Glutathione]    2.1
Oc1ccc(O)c(Cl)c1 [2-chloro-1,4-dihydroxybenzene]    1.1
COc1cc(C(=O)O)cc(OC)c1O [Syringic Acid]    1.6
CC(=O)N[C@@H](CS)C(=O)O [N-Ac-Cysteine, N-acetyl cysteine]    1.1

Consider the compound CC1(C)OC[C@@H]([C@H]2OC(=O)C(O)=C2O)O1 [5,6iso-propyliene ascorbic acid, 5,6-Isopropylidene-L-Ascorbic acid] and give its measured S1/S0.
3.6

Now the same for Cl.Nc1ccc(O)cc1O [4-aminoresorcinol HCl, 4-aminoresorcinol hydrochloride]
1.7

Now the same for Cc1c(O)cc2c(c1C)O[C@](C)(CCC[C@H](C)CCC[C@H](C)CCCC(C)C)CC2 [(+)-gamma-Tocopherol, (+)-y-Tocopherol]
1.8

Now the same for N[C@@H](CS)C(=O)O [Cysteine]
1.6

----------
# Tested system: biotinylated HRP (Armoracia rusticana, UniProt P00433)
# Construct: purchased Roche Diagnostics, Indianapolis, Ind., USA
# Sequence (P00433 31-338 limits assumed): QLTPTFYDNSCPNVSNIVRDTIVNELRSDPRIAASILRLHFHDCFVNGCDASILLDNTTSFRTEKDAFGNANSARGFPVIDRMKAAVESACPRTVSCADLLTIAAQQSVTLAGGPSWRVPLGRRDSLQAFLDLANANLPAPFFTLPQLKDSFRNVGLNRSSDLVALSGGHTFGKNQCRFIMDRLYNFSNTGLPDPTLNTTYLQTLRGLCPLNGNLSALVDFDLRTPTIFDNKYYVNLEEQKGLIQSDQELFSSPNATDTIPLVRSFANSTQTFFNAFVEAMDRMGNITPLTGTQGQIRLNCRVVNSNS
# Assay name: Model system for selection of SSIA (M280 btn-BSA-AK1-streptavidin particles + Btn-HRP:HRP)
# Format: biochemical
# Cond: Btn-HRP 250 ng/mL vs 0; SSIA 100 μM
With a cut-off of 700, any S4/S0 strictly below it is called yes; any S4/S0 meeting it or above is called no.

O=c1[nH]c(=O)c2[nH]c(=O)[nH]c2[nH]1    no
O=C(O)CCCC[C@@H]1CCSS1 (racemic)    yes
N[C@@H](CS)C(=O)O    yes

Field: below-cutoff. Rule: recorded S4/S0 strictly less than 700. Subject: Oc1ccc(O)c(Cl)c1 [2-chloro-1,4-dihydroxybenzene]
yes

Now the same for Nc1ccccc1O
no
